# Measurement Protocol: yeast display, Sf9 membrane polyspecificity reagent, FACS + sequencing; frameworks hold sequencing errors
Endpoint Name: polyreactivity (PSR sort gate)

Consider the worked cases shown below.
QVQLVDSAGGLVQAGGSLRLSCDDSGRTFWYYTMGWYRQAPGKEREFLAAIRGSGTSTYYADSVKARYTISRDNAKNTVYFQMNSLKPEDTADYYCAAESPVYHLVTYDYWGQGTQVTVSS
high polyreactivity
QVQLVESGGGLVQAGGSRRLSCAASGSTFRANAMGWYRQAPGKERELVAAITSSGGSTYYADSVKGRFTISRDNAKNTVYLQMNSLKPEDTAVYYCAAYPRPYIGYTDGYVWYEFDYWGQGTQVTVSS
low polyreactivity
QDQHVESGGGLVQAGGSLRLSCAASGRTFVFYAMGWYRQAPGKERELLAVIRVIGGSTKYADSVKGRFTISRDNAKNTVYLQMNSLKPVDTAVYYCAADGVVVVAAYMYYWGQGTQVTVSS
low polyreactivity
QVQLVESGGGLVQAGGSLRLSCAASGRTFSWNTMGWYRQAPGKEMELVATITWSGTSTYYADSVKGRFTISRDNAKNTDYLQMNSLKPEDTAVYYCAKRRLFPYTISRYDYWGQGTQVTVSS
high polyreactivity
QVQLVESGGGLVQAGGSLRLSCAASGSIFGTYAMGWYRQAPGKEREFVAAISWSDGSTYYADSVKGRFTISRDNAKNTVYLQMNSLKPEDTAVYYCAAKSDPYRHDYWGQGTQVTVSS
low polyreactivity
QVQLVESGGGLVQAGGSLRLSCAASGRTFGIKAMGWYRQAPGKERELVATITTGTSTNYAVSVKGRFTISRDNAKNTVYLQMNSLKPEDTAVYYCAARDWYGWEFDYWGQGTQVTVSA
low polyreactivity
QVQLVESGGGFVQAGGSLRLSCAASGFTFGYYTMGWYRQAPGKERELVAAITYRGGRTYYADSVKGRFTISRDNAKNTVYLQLNSLKPEATAVYYGAARLLGKTGRTDSGAEGDYWGQGTQVTVSS
high polyreactivity
QVQLVESGGGIVQAGGSLRLSCAASGSTFEANAMGWYRQARGKERELVAAISSGDRTNYADSVKGRFTISRDNAKNTVYLQLNSLKPEDNAVYFCAAPTDSYYEFDYWGQGTQGTVSS
low polyreactivity

Kindly note the recorded polyreactivity (PSR sort gate) for `QVQLVESGGGLVQAGGSLRLSCAASGRIFYTYAMGWYRQAPGKERELVAAISSRTGSTYYADSVKGRFTISRDNAKNTVYLQMNSLKPEDTAVYYCNAYRLRYGYDYWGQGTQVTVSS` , which is high polyreactivity

// polyreactivity (PSR sort gate) lookup, sequence = `QVQLVESGGGLVQAGGSLRLSCAGSGLIFRIYAMGWYTQAPGKEREFVAAIRWRGGSTYYADSVKGRFTISRDNAKNTVYLQMNSLKPEDSAVYYCAVRYCPYRPRLDYWGQGTQVTVSS` , result: high polyreactivity

Looking up `QVQLVESGGGLVQAGGSLRLSCAASGSIFRGNALGWYRQAPGKERELVAAITGSGGNTYYADSVKGRFTISRDNAKNTVYLQMNSLKPEDTAVYYCNAQRYRVVVYNSHGWQTRNYWGQGTQVTVSS` , I see its polyreactivity (PSR sort gate) listed as low polyreactivity

Values from the nanobody polyreactivity screen of Harvey et al. (2022)
